# System: HL-60(TB) leukemia
# procedure details: NCI-60 one-dose screen, 48 h
# experimental context: 10 µM unless noted
# Experimental: Growth inhibition of the HL-60(TB) human tumor cell line is measured as a screen for anti-cancer activity. Cells are grown in 96 well plates and exposed to the test compound for 48 hours. Compounds are tested at a single concentration, which is 10^-5 M for most compounds. The reported endpoint is percent growth (GI% or GIPRCNT), where numbers from 0 - 100% represent growth inhibition, and numbers from -100% - 0 represent cell death. For example, a value of 40 represents 60% growth inhibition. […]
About 83,000 compounds went through this panel and 20% of them were active in at least one assay; those are over-represented in the sample as a whole. The source made the active and inactive calls. The calls were made as follows: active = growth percent below 10; inactive = the rest.
Outcome field: choose from active, inactive

compound=COC(=O)/C(=C\c1ccc(OC)cc1)C(=O)N1c2ccccc2Sc2ccccc21 discrete_label=inactive

What was the test verdict on COc1ccc(/C(=N\O)c2cc(OC)c(OC)c(OC)c2)c(OC)c1N ?
active

What was the test verdict on CCCCn1c(=O)c(-c2cc(-c3ccc(Cl)cc3)nc(-c3ccc(Cl)cc3)c2)cc2ccc(Cl)cc21 ?
inactive

What was the test verdict on CCN(CC)c1ccc2cc(C(Nc3ccc(C)cc3)c3nnnn3C(C)(C)C)c(=O)oc2c1 (stereo not drawn) ?
inactive

What was the test verdict on N#Cc1ccc(/C=C/c2cn(-c3ccccc3)nc2-c2cccc([N+](=O)[O-])c2)cc1 ?
inactive

What was the test verdict on COc1cc(C(=O)c2cc(C)c3[nH]c4ccc(C)cc4c3c2C)cc(OC)c1OC ?
active

What was the test verdict on OC(CCC(O)(c1ccccc1)c1ccccc1)(c1ccccc1)c1ccccc1 ?
active

What was the test verdict on COc1ccc2[nH]cc(/C=C3/C(=O)Nc4ccc(F)cc43)c2c1 ?
inactive

What was the test verdict on CN1CCN(CC#CCOC(=O)CNC(=O)[C@]23CCC(C)(C)C[C@H]2C2=CC[C@@H]4[C@@]5(C)CC[C@H](O)C(C)(C)[C@@H]5CC[C@@]4(C)[C@]2(C)CC3)CC1 ?
inactive

What was the test verdict on Cc1cc(=NO)cc(C)n1O ?
inactive

What was the test verdict on CNc1nc2ncc(-c3c(C)noc3C)cc2n1Cc1ccccc1 ?
active

What was the test verdict on CC(C)C1=NOC(=O)C1=Cc1cn(-c2ccccc2)nc1-c1ccc(Cl)cc1 ?
active

What was the test verdict on O=C(O)Cc1cc(=O)[nH]n(-c2ccccc2)c1=O ?
inactive

What was the test verdict on C=C(C)[C@@H]1CC[C@]2(C(=O)NCCCN(CCC#N)CCC#N)CC[C@]3(C)[C@H](CC[C@@H]4[C@@]5(C)CCC(=O)C(C)(C)[C@@H]5CC[C@]43C)[C@@H]12 ?
inactive

What was the test verdict on COc1ccc(/C=C2\CCCC3=C2N=C2SC=NN2C3c2ccc(OC)c(OC)c2)cc1OC (stereo not drawn) ?
inactive

What was the test verdict on O=C1C2C(C(=O)N1CC[Se][Se]CCN1C(=O)C3C(C1=O)[C@H]1C=C[C@@H]3C1)[C@H]1C=C[C@@H]2C1 (stereo partly drawn) ?
active

What was the test verdict on Nc1c(C(=O)Nc2cccc(Br)c2)sc2nc3c(cc12)C(=O)CCC3 ?
inactive

What was the test verdict on CCCCOC(=O)c1ccc(NC(=O)CCl)cc1 ?
inactive

What was the test verdict on CCCC/C(CC)=N\NS(=O)(=O)c1ccc([N+](=O)[O-])cc1 ?
inactive

What was the test verdict on COc1cc(/C=C2\C=C(c3ccccc3)N(CCc3ccccc3)C2=O)cc(OC)c1OC ?
inactive

What was the test verdict on O=C(NCCc1ccccc1)Nc1ccc2cc3ccc(NC(=O)NCCc4ccccc4)cc3nc2c1 ?
active

What was the test verdict on CC(C)N1CCN(c2ccncc2S(=O)(=O)N2CCN(C)CC2)CC1 ?
inactive

What was the test verdict on COc1ccc(NC(=O)c2ccc(-c3ccccc3)cc2)c(C(N)=O)c1 ?
inactive

---

# Tested on: SNB-19 CNS
# procedure details: NCI-60 one-dose screen, 48 h (100 = growth as untreated, 0 = no growth, -100 = all killed)
# experimental context: 10 µM unless noted
Compounds without any hit were thinned out: in the full panel of roughly 83,000, 20% have a hit.
property: growth (%)
Numeric answer only, unit % assumed.

molecule=COc1ccc(OC)c(/C=C(/C)[N+](=O)[O-])c1 assay_target="SNB-19 CNS" measured_value=97.6
molecule=CCOC(=O)C1(c2ccccc2)CCN(CC(=O)c2ccc(NC(C)=O)cc2)CC1 assay_target="SNB-19 CNS" measured_value=102

For the molecule shown here, n1nc(-c2nonc2-c2nn[nH]n2)n[nH]1 , give the reported growth.
105

For the molecule shown here, OC1(c2ccccc2F)c2ccccc2C2=NCCN21 (stereo unspecified) , give the reported growth.
108

For the molecule shown here, C/C1=C/C(=O)O[C@@H]2C[C@@H](CC[C@H](C)/C=C\C=C\CC1)O[C@@](OCCc1ccccc1)([C@@H]1CSC(=O)N1)C2 , give the reported growth.
21.5

For the molecule shown here, COP(=S)(OC)Oc1ccc(SC)c(C)c1 , give the reported growth.
109

For the molecule shown here, CC1(C)N=C(N)N=C(N)N1c1ccc(CNC(=O)Nc2ccc(S(=O)(=O)F)c(Cl)c2)c(Cl)c1 , give the reported growth.
56

For the molecule shown here, O=C(CCCN1CCC2(CC1)C(=O)NCN2c1ccc(F)cc1)c1ccc(F)cc1 , give the reported growth.
95.6

For the molecule shown here, CC[C@]12C=CCN3CC[C@@]4(c5ccc(OC)cc5N(C)[C@H]4[C@@](O)(C(=O)OC)[C@@H]1OC(=O)CCCN1CCN(CCCC(=O)O[C@@H]4[C@]5(CC)C=CCN6CC[C@@]7(c8ccc(OC)cc8N(C)[C@H]7[C@@]4(O)C(=O)OC)[C@@H]65)CC1)[C@@H]32 , give the reported growth.
-93.9

For the molecule shown here, O=S(=O)(F)c1ncnc2nc[nH]c12 , give the reported growth.
93.4

For the molecule shown here, COC[CH2][Hg][C]#[C][Hg][CH2]COC , give the reported growth.
108

---

# Tested on: TK-10 renal
# procedure details: NCI-60 one-dose screen, 48 h
# experimental context: 10 µM unless noted
This is part of a sample that, as a whole, favours compounds with a hit. Of some 83,000 tested, about 20% had one in any assay. Activity calls are given as the source filed them. Rule for the calls: active = growth percent below 10; inactive = the rest.
Outcome field: choose from active, inactive

compound=n1nc(-c2nonc2-c2nn[nH]n2)n[nH]1 assay_target="TK-10 renal" discrete_label=inactive
compound="c1ccc(CCN2CCCCC2Cc2ccccc2)cc1 (stereo unspecified)" assay_target="TK-10 renal" discrete_label=inactive
compound=CCC(C)(C)O assay_target="TK-10 renal" discrete_label=inactive
compound="N#C[Se]CCCNS(=O)(=O)C1CC2C=CC1C2 (stereo unspecified)" assay_target="TK-10 renal" discrete_label=active

What was the test verdict on NCCc1cc(O)c(O)cc1O ?
inactive

What was the test verdict on CCC1CN1P(=O)(OCCOC)N1CC1CC (stereo unspecified) ?
inactive

---

# System: HL-60(TB) leukemia
# procedure details: NCI-60 one-dose screen, 48 h (100 = growth as untreated, 0 = no growth, -100 = all killed)
# experimental context: 10 µM unless noted
# Description: Growth inhibition of the HL-60(TB) human tumor cell line is measured as a screen for anti-cancer activity. Cells are grown in 96 well plates and exposed to the test compound for 48 hours. Compounds are tested at a single concentration, which is 10^-5 M for most compounds. The reported endpoint is percent growth (GI% or GIPRCNT), where numbers from 0 - 100% represent growth inhibition, and numbers from -100% - 0 represent cell death. For example, a value of 40 represents 60% growth inhibition. […]
About 83,000 compounds went through this panel and 20% of them were active in at least one assay; those are over-represented in the sample as a whole. The source made the active and inactive calls. Rule for the calls: active = growth percent below 10; inactive = the rest.
property: growth

Below, 5 compounds whose answers are already recorded.
compound=CN(C)c1ccc(N=Nc2ccc3ccccc3c2)cc1 property=growth measured_value="61.6% (inactive)"
compound="Cc1cc(NC(=O)C2c3ccccc3C(=O)N(CC(C)C)C2c2cccs2)no1 (centres undefined)" property=growth measured_value="0.0249% (active)"
compound=C=C(C)[C@@H]1CC[C@]2(C(=O)OCCOCCOCC[P+](c3ccccc3)(c3ccccc3)c3ccccc3)CC[C@]3(C)[C@H](CC[C@@H]4[C@@]5(C)CC[C@H](C)C(C)(C)[C@@H]5CC[C@]43C)[C@@H]12 property=growth measured_value="-72.5% (active)"
compound=CC1(C)CC[C@]2(CO)CC[C@]3(C)[C@](O)([C@H](O)C[C@@H]4[C@@]5(C)CCCNC(C)(C)[C@@H]5CC[C@]43C)[C@@H]2C1 property=growth measured_value="71% (inactive)"
compound=CCC(=O)Oc1ccc(/C(=C(\C)c2ccccc2)c2ccc(OCCN3CCCCC3)cc2)cc1 property=growth measured_value="68.2% (inactive)"

For the compound shown here, BrCc1cccc(C[P+](c2ccccc2)(c2ccccc2)c2ccccc2)c1 , give the reported growth.
12.2% (inactive)

For the compound shown here, CC(C)c1cccc(C#N)c1 , give the reported growth.
112% (inactive)

For the compound shown here, COc1ccc(/C(=C2\O[C@@H]([C@H](O)CO)[C@H]3OC(C)(C)O[C@@H]23)c2cc(OC)c(OC)c(OC)c2)cc1O , give the reported growth.
-2.8% (active)

For the compound shown here, O=C1/C(=C/c2cccc3cnccc23)Cc2cc(F)ccc21 , give the reported growth.
105% (inactive)

For the compound shown here, CC(C)(C)CC(C)(C)N(CSc1ccc(Cl)cc1)CSc1ccc(Cl)cc1 , give the reported growth.
-35.3% (active)

For the compound shown here, CCCCCCCCCCCCNC(=O)[C@H]1CSC(c2cc(Br)cs2)N1 (some centres undefined) , give the reported growth.
-36.9% (active)

For the compound shown here, O=C1CN(c2ccccc2)C(=O)C1C(=O)Nc1ccc(Cl)c(Cl)c1 (centres undefined) , give the reported growth.
7.75% [100 µM] (active)

Each recorded value in this set is attributed to PubChem BioAssay (NCI).
